Could you please report measured Ki for the items listed next?
- SYSTEM_NAME: human Orexin type 1 receptors (Homo sapiens (Human))
- Sequence (O43613 whole entry): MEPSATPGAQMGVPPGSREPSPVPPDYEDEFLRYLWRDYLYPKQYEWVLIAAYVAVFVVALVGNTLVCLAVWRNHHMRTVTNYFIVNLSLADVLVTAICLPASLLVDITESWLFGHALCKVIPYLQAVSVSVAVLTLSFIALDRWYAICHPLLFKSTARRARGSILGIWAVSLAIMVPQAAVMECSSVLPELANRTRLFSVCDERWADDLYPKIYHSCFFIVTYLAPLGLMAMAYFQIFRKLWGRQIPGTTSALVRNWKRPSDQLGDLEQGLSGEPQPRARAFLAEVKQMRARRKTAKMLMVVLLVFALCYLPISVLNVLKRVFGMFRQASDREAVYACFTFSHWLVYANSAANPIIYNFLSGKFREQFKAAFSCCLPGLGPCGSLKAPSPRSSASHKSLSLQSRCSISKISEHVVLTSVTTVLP
- TEST_PROTOCOL: Intracellular calcium measurement (FLIPR), antagonism of Orexin-A at EC80 in CHO-hOX1 cells
Entry format: amount then unit.

Query :: Any idea what its Ki is? The compound is Cc1ccc(-c2ncccn2)c(C(=O)N2C(COc3ccc(Cl)cn3)CC3CC2C3)c1 (racemic) [Example 32]
Result :: 0.0724 µM

Query :: # Ki lookup, item Cc1nc(C(=O)N2C(COc3ccc(F)cc3)CC3CC2C3)c(-c2ccccc2)s1 (racemic) [Example 1]
Result :: 0.00631 µM

Query :: I would be grateful if you could share the reported Ki for Cc1ccc(-c2nccs2)c(C(=O)N2C(COc3ccc(Cl)cc3)CC3CC2C3)c1 (centres unmarked) [Example 20] .
Result :: 0.0229 µM

Query :: Which Ki value is on record for Cc1ccc(-c2ncccn2)c(C(=O)N2C(COc3ccc(F)cn3)CC3CC2C3)n1 (single isomer, unassigned) [Example 22] ?
Result :: 0.0347 µM

Query :: # Ki lookup, item Cc1ccc(-c2ncccn2)c(C(=O)N2C(COc3ccc(F)cc3)CC3CC2C3)c1 (racemic) [Example 16]
Result :: 0.0288 µM

Query :: So what's the measured Ki for this one? Cc1ccc(-c2ncccn2)c(C(=O)N2C(COc3ccc(C(F)(F)F)cn3)CC3CC2C3)c1 (single isomer, unassigned) [Example 36]
Result :: 0.0676 µM

Query :: Look at this compound and give its reported Ki. Cc1ccc(-c2ncccn2)c(C(=O)N2C(COc3ccc(F)cc3)CC3CC2C3)n1 (single isomer, unassigned) [Example 15]
Result :: 0.00407 µM

Query :: Would you kindly share the measured Ki for Cc1ccc(-c2ncccn2)c(C(=O)N2C3CC(C3)[C@@H](C)C2COc2ccc(F)cn2)c1 (single isomer, unassigned) [Example 75] ?
Result :: 0.0105 µM

Query :: Entry Cc1ccc(-c2nccs2)c(C(=O)N2C(COc3ccc(F)cc3)CC3CC2C3)n1 (racemic) [Example 4] : reported Ki = ?
Result :: 0.00575 µM

Query :: I am curious: what Ki value has been reported for Cc1ccc(-c2nccs2)c(C(=O)N2C(COc3ccc(F)cn3)CC3CC2C3)c1 (racemic) [Example 25] ?
Result :: 0.0302 µM

Query :: Item Cc1ccc(-c2ncccn2)c(C(=O)N2C3CC(C3)C(C)C2COc2ccc(F)cn2)n1 (mixture of isomers) [Example 78] has what recorded Ki?
Result :: 0.0355 µM

Query :: Give the measured Ki of Cc1ccc(-c2ncccn2)c(C(=O)N2C3CC(C3)[C@@H](C)C2COc2ccc(F)cn2)c1 (some centres unmarked) [Example 74] .
Result :: 0.0288 µM

Query :: # input compound: Cc1ccc(-c2ncccn2)c(C(=O)N2C(CCOc3ccc(F)cc3)CC3CC2C3)c1 (single isomer, unassigned) [Example 42] ; wanted: its Ki
Result :: 0.0182 µM

Query :: Request the reported Ki associated with Cc1ccc(-c2nccs2)c(C(=O)N2C(COc3ccc(F)cc3)CC3CC2C3)c1 (single isomer, unassigned) [Example 9]
Result :: 0.00398 µM

----------
I'd appreciate it if you could supply OX1 pKi (SPA binding) values for the items below.
- SYSTEM_NAME: human Orexin type 1 receptors (Homo sapiens (Human))
- TEST_PROTOCOL: Scintillation Proximity Assay (SPA) binding assay, [3H]SB-674042 displacement, CHO-hOX1 membranes
- ASSAY_CONDITIONS: Table 2, [3H]SB-674042 2 nM
Form field (numeric): enter value without unit.

Query :: Look up OX1 pKi (SPA binding) for this compound: Cc1ccc(-c2ccccn2)c(C(=O)N2C3CC(C3)[C@@H](C)C2COc2ccc(F)cn2)n1 (mixture of isomers) [Example 131]
Result :: 7.02

Query :: # query: OX1 pKi (SPA binding) of entry Cc1cnc(NCC2[C@H](C)C3CC(C3)N2C(=O)c2nc(C)ccc2-n2nccn2)cn1 (mixture of isomers) [Example 216]
Result :: 6.94

Query :: Fill in the blank: the reported OX1 pKi (SPA binding) of Cc1nc(C(=O)N2C3CC(C3)[C@@H](C)C2COc2ccc(F)cc2)c(-c2cncc(Cl)c2)s1 (mixture of isomers) [Example 139] is ____.
Result :: 7.85

Query :: Would you mind telling me what OX1 pKi (SPA binding) value was observed for C[C@@H]1C2CC(C2)N(C(=O)c2c(F)cccc2-n2nccn2)C1CNc1cnc(C(F)(F)F)cn1 (stereo partly shown) [Example 253] ?
Result :: 7.88

Query :: Tell me the measured OX1 pKi (SPA binding) of C[C@@H]1C2CC(C2)N(C(=O)c2cc(Cl)ccc2-n2nccn2)C1CNc1cnc2cc(F)ccc2n1 (mixture of isomers) [Example 207] , please.
Result :: 8.46

Query :: Give the measured OX1 pKi (SPA binding) of C[C@@H]1C2CC(C2)N(C(=O)c2cc(C#N)ccc2-n2nccn2)C1CNc1nc2cccnc2s1 (stereo partly shown) [Example 231] .
Result :: 8.2

Query :: Request the reported OX1 pKi (SPA binding) associated with C[C@@H]1C2CC(C2)N(C(=O)c2cc(Cl)ccc2-n2nccn2)C1CNc1nc2cccnc2o1 (single isomer, unassigned) [Example 244]
Result :: 8.25

----------
Field: OX1 pKi (SPA binding). Provide a value for each of the compounds that follow.
- SYSTEM_NAME: human Orexin type 1 receptors (Homo sapiens (Human))
- TEST_PROTOCOL: Scintillation Proximity Assay (SPA) binding assay, [3H]SB-674042 displacement, CHO-hOX1 membranes
- ASSAY_CONDITIONS: Table 2, [3H]SB-674042 2 nM
Provide a numeric answer; units are not to be included.

Query :: Consider the compound shown here: Cc1nc(C(=O)N2C3CC(C3)[C@H](C)C2COc2ccc(F)cc2)c(-c2ncccn2)s1 (mixture of isomers) [Example 113] What is its recorded OX1 pKi (SPA binding)?
Result :: 8.21

Query :: // OX1 pKi (SPA binding) lookup, key: Cc1ccc(-n2nccn2)c(C(=O)N2C3CC(C3)[C@@H](C)C2CNc2cnc3cc(F)ccc3n2)n1 (mixture of isomers) [Example 198]
Result :: 8.07

Query :: Form field: reported OX1 pKi (SPA binding) of C[C@@H]1C2CC(C2)N(C(=O)c2cc(F)ccc2-n2nccn2)C1CNc1ncc(C(F)(F)F)cn1 (stereo partly drawn) [Example 251]
Result :: 7.65

Query :: I have this compound here, Cc1ccc(-n2nccn2)c(C(=O)N2C3CC(C3)[C@@H](C)C2CNc2nc3ccccc3o2)n1 (single isomer, unassigned) [Example 227] , and I need its recorded OX1 pKi (SPA binding).
Result :: 7.11

Query :: Can you look up the measured OX1 pKi (SPA binding) of C[C@@H]1C2CC(C2)N(C(=O)c2cc(C#N)ccc2-n2nccn2)C1CNc1nc2cccnc2s1 (single isomer, unassigned) [Example 233] for me?
Result :: 8.41

Query :: Entry under review: Cc1ccc(-n2nccn2)c(C(=O)N2C3CC(C3)[C@H](C)C2CNc2ccc(Cl)cn2)n1 (mixture of isomers) [Example 148] . Reported OX1 pKi (SPA binding)?
Result :: 6.85

----------
- SYSTEM_NAME: UniProtKB O43613
- TEST_PROTOCOL: Scintillation Proximity Assay (SPA) binding assay, [3H]SB-674042 displacement, CHO-hOX1 membranes
- ASSAY_CONDITIONS: Table 2, [3H]SB-674042 2 nM
METRIC: OX1 pKi (SPA binding)
Form: value (number only, do not type unit).

Query :: May I ask what OX1 pKi (SPA binding) has been recorded for Cc1ccc(-n2nccn2)c(C(=O)N2C3CC(C3)[C@@H](C)C2CNc2nc3ccc(F)cc3s2)n1 (mixture of isomers) [Example 152] ?
Result :: 8.68

Query :: Recorded OX1 pKi (SPA binding) for Cc1ccc(-n2nccn2)c(C(=O)N2C3CC(C3)[C@@H](C)C2CNc2cnc3cc(F)c(F)cc3n2)n1 (mixture of isomers) [Example 201] , please?
Result :: 7.97

Query :: So what does the record say about OX1 pKi (SPA binding) for C[C@@H]1C2CC(C2)N(C(=O)c2nn(C)cc2-c2ncccn2)C1CNc1ccc(C(F)(F)F)cn1 (single isomer, unassigned) [Example 215] ?
Result :: 8.15

----------
- SYSTEM_NAME: human Orexin type 2 receptors (Homo sapiens (Human), UniProt O43614)
- Sequence (O43614 whole entry): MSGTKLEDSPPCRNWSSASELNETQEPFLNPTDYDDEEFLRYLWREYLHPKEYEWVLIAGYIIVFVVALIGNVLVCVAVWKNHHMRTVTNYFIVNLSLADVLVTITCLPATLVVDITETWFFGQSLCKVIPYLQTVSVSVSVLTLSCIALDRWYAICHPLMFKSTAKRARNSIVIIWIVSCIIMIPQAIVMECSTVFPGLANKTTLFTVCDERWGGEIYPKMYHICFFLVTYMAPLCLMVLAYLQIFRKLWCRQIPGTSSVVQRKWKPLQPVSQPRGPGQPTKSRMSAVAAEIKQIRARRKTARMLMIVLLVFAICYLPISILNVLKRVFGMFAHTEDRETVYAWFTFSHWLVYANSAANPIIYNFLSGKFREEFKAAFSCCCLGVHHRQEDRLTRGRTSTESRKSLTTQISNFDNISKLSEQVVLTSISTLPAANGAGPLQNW
- TEST_PROTOCOL: Scintillation Proximity Assay (SPA) binding assay, [3H]EMPA displacement, HEK-hOX2 membranes
- ASSAY_CONDITIONS: Table 2, [3H]EMPA 2 nM
Tick True if OX2 pKi (SPA binding) is 5 or greater. Tick False if OX2 pKi (SPA binding) is less than 5.

Query :: I'd appreciate it if you could say whether Cc1ccc(-n2nccn2)c(C(=O)N2C3CC(C3)[C@H](C)C2COc2ccc(Cl)cc2)n1 (single isomer, unassigned) [Example 119] has OX2 pKi (SPA binding) at least equal to 5.
Result :: True

Query :: Threshold query (OX2 pKi (SPA binding) >= 5) on C[C@@H]1C2CC(C2)N(C(=O)c2ccc(Cl)cc2-n2nccn2)C1CNc1cnc(C(F)(F)F)cn1 (mixture of isomers) [Example 246]
Result :: True

Query :: For this compound, is measured OX2 pKi (SPA binding) 5 or higher? Cc1ccc(-c2ncccn2)c(C(=O)N2C3CC(C3)[C@@H](C)C2CNc2cnc(C(F)(F)F)cn2)n1 (single isomer, unassigned) [Example 250]
Result :: False

Query :: Could you tell me if the measured OX2 pKi (SPA binding) of C[C@@H]1C2CC(C2)N(C(=O)c2cc(Cl)ccc2-n2nccn2)C1CNc1cnc(C(F)(F)F)cn1 (single isomer, unassigned) [Example 205] reaches 5 or more?
Result :: True

Query :: Answer whether OX2 pKi (SPA binding) of Cc1ccc(-n2nccn2)c(C(=O)N2C3CC(C3)[C@@H](C)C2CNc2cnc3ccccc3n2)n1 (mixture of isomers) [Example 158] is greater than or equal to 5.
Result :: True
